Recorded normalized growth, one value per entry.
- protocol-description: chemical genetic growth profiling, strain panel (AID 1159580);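 also: tested at 20 µM; growth read once vehicle control cultures reached saturation at 30 °C; 1 = growth at the plate median or of vehicle wells; lower values mean less growth of the strain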
- experimental-parameters: S. cerevisiae deletion strains, growth OD, locus YNL248C, strain rpa49, stronger effect = lower value
Among all 5,500 compounds or so, about 2,000 (36%) were called active. Roughly 18% stayed inconclusive and do not appear here. The list shows a part of the results.
Please give the numeric answer without any surrounding text.

Before answering, review these 3 worked examples.
{"columns": ["molecule", "normalized growth"],
 "data": [
  ["C=C[C@@](C)(O)CCC1C(=C)C[C@H](OC(C)=O)C2C(C)(C)CCCC12C (stereo partly specified)", 1.03],
  ["NS(=O)(=O)c1cc2c(cc1Cl)NC=NS2(=O)=O", 1.04],
  ["C=C[C@@](C)(O)CCC1C(=C)CCC2[C@@](C)(CO)CCC[C@]12C (stereo partly specified)", 0.983]
]}

Consider the molecule CN(C)CCCC1(c2ccc(F)cc2)OCc2cc(C#N)ccc21 (stereo unspecified) and give its measured normalized growth. 0.99

Also need O=C1C(Cl)=C(Cl)C(=O)C(Cl)=C1Cl , thanks. 0.884

Also need Cc1ncc(CNC(=O)N(CCCl)N=O)c(N)n1 , thanks. 1.02

###

Recorded normalized growth, one value per entry.
- protocol-description: chemical genetic growth profiling, strain panel (AID 1159580);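 also: tested at 20 µM; growth read once vehicle control cultures reached saturation at 30 °C; 1 = growth at the plate median or of vehicle wells; lower values mean less growth of the strain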
- experimental-parameters: S. cerevisiae deletion strains, growth OD, locus YBL061C, strain skt5, stronger effect = lower value
About 2,000 (36%) of roughly 5,500 compounds were called active. Inconclusive results (about 18%) are left out. This is one part of the list.
Please give the numeric answer without any surrounding text.

Consider the molecule N[C@@H](Cc1ccc(N(CCCl)CCCl)cc1)C(=O)O and give its measured normalized growth. 0.987

###

- protocol-description: chemical genetic growth profiling, strain panel (AID 1159580);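 also: tested at 20 µM; growth read once vehicle control cultures reached saturation at 30 °C; 1 = growth at the plate median or of vehicle wells; lower values mean less growth of the strain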
- experimental-parameters: S. cerevisiae deletion strains, growth OD, locus YHR030C, strain SLT2, stronger effect = lower value
Out of some 5,500 compounds screened, about 2,000 (36%) were called active. Another 18% or so got no clear call; they are omitted. The list shows a part of the results.
Recorded normalized growth, one value per entry.

Before answering, review these 2 worked examples.
{"columns": ["compound", "normalized growth"],
 "data": [
  ["COc1ccc(C(=O)CC(=O)O)c2c1C=CC(C)(C)O2", "0.997 (inactive)"],
  ["CC[C@]1(O)CC2CN(CCc3c([nH]c4ccccc34)[C@@](C(=O)OC)(c3cc4c(cc3OC)N(C)[C@H]3[C@@](O)(C(=O)OC)[C@H](OC(C)=O)[C@]5(CC)C=CCN6CC[C@]43[C@@H]65)C2)C1 (stereo not given in full)", "0.991 (inactive)"]
]}

Consider the compound CC[C@@]1(O)C[C@H](O)c2c(cc3c(c2O)C(=O)c2c(O)ccc(O)c2C3=O)[C@H]1C(=O)OC and give its measured normalized growth. 0.97 (inactive)

Also need O=C(NCc1ccc(Cl)c(Cl)c1)c1cccnc1OCC(F)(F)F , thanks. 1.04 (inactive)

Also need COC(=O)CC1C2(C)CC34OC5(C)OC6(C7/C(=C(/O)C(C)C)C(=O)OC(c8ccoc8)C7(C)C(OC(=O)C(C)C)C(OC)C6(O5)C13C)C(OC)C4(OC)C2OC(C)=O (stereo not given) , thanks. 1.01 (inactive)

Also need S=c1nc2[nH]c3ccccc3c2n[nH]1 , thanks. 0.962 (inactive)

Also need Cc1cc(C(=O)NNS(=O)(=O)c2ccc(F)c(Cl)c2)nn1-c1c(Cl)cc(Cl)cc1Cl , thanks. 1.09 (inactive)

Also need Clc1ccc(C(c2ccc(Cl)cc2)C(Cl)(Cl)Cl)cc1 , thanks. 1.03 (inactive)

Also need N#CCCN(CC1CCCO1)C(=S)Nc1cc(C(F)(F)F)cc(C(F)(F)F)c1 (stereo not given) , thanks. 0.882 (inactive)

Also need COC(=O)[C@@H]1OC(=O)C2OC23[C@@]1(C)CCC1[C@]2(C)C(C[C@H](O)[C@]13C)C(C)(C)[C@H](OC(C)=O)C[C@@H]2OC(C)=O (stereo not given in full) , thanks. 0.999 (inactive)

Also need O=C1c2ccc(O)cc2O[C@H](c2cc(O)c(O)c(O)c2)[C@H]1O , thanks. 1.01 (inactive)

Also need CCCc1cc(C(N)=S)ccn1 , thanks. 1.01 (inactive)

Also need O=S(=O)(O)c1cc(N=C=S)ccc1/C=C/c1ccc(N=C=S)cc1S(=O)(=O)O , thanks. 0.996 (inactive)

Also need CCC(C)C(=O)OC1CC2(C)C(c3ccoc3)OC(=O)CC23OC2(C)OC34C(OC(=O)C(C)C)C3(O)C(OC(=O)C5(C)OC5C)C5(C)CC3(O)C(C)(C5C(=O)OC)C14O2 (stereo not given) , thanks. 1.02 (inactive)

Also need COC(=O)C[C@H]1C2(C)CC34OC5(C)O[C@@]6([C@H](OC)C(OC(=O)C(C)C)[C@]7(C)C(/C(=C(/OC)C(C)C)C(=O)O[C@H]7c7ccoc7)[C@@]6(O5)[C@H](OC)[C@@]3(OC)C2OC(C)=O)[C@]14C (stereo not given in full) , thanks. 0.969 (inactive)

Also need CCC(C)C(=O)O[C@@H]1C[C@@]2(C)[C@H](c3ccoc3)OC(=O)CC23OC2(C)OC34[C@H](OC(=O)C(C)C)[C@@]3(O)[C@@H](OC(=O)C5(C)OC5C)[C@@]5(C)C[C@]3(O)[C@@](C)([C@H]5CC(=O)OC)C14O2 (stereo not given in full) , thanks. 1.05 (inactive)

Also need NCCS(=O)(=O)O , thanks. 0.943 (inactive)

Also need O=[N+]([O-])c1ccc(N2CCCCC2)nc1N1CCCCC1 , thanks. 0.587 (active)

Also need CN(C)C=Nc1ncccc1OCc1ccc(Cl)c(Cl)c1 , thanks. 0.47 (active)

Also need COC(=O)c1ccc(Cl)cc1NS(=O)(=O)c1ccc(OC)c(OC)c1 , thanks. 0.969 (inactive)

Also need CC(C)(C)S(=O)(=O)/C(C#N)=C/c1ccc(F)cc1F , thanks. 1.08 (inactive)

Also need Cc1cc(C)cc(Sc2ccc3nnc(-c4ccccc4)n3n2)c1 , thanks. 1.08 (inactive)

Also need COC(=O)c1ccc2c(c1)N(C)S(=O)(=O)CC2=O , thanks. 0.994 (inactive)

Also need O=C(c1ccc(OCCN2CCCCC2)cc1)c1c(-c2ccc(O)cc2)sc2cc(O)ccc12 , thanks. 0.968 (inactive)

Also need O=C(Oc1cc(O)cc2c1C[C@@H](OC(=O)c1cc(O)c(O)c(O)c1)[C@@H](c1cc(O)c(O)c(O)c1)O2)c1cc(O)c(O)c(O)c1 , thanks. 1.01 (inactive)
